assay explanation: Parallel artificial membrane permeability assay (PAMPA-BBB)
Assay type: in vitro ADME
experimental setup: pig; PAMPA-BBB, pH 7.4, 5% DMSO, 2 h 30 min at 25 °C, mean ± SD; read-out: Pe, in vitro permeability
outcome measure: Papp at 2.5 h, 0.04 mg/mL (×10⁻⁶ cm/s)
Give bare numbers, in ×10⁻⁶ cm/s.

**Query** Tell me Papp at 2.5 h, 0.04 mg/mL reported for O=C(Cc1c[nH]c2ccccc12)NN=Cc1ccc([N+](=O)[O-])c(O)c1 (mixture of isomers)
**Result** 12.9

###

Please provide measured RPA (%), Templated DCL for the entries that follow.
tested system: dNCS-1 (Drosophila melanogaster)
Construct: made in house; host or cells: E. coli
Sequence (Q9VWX8 whole entry): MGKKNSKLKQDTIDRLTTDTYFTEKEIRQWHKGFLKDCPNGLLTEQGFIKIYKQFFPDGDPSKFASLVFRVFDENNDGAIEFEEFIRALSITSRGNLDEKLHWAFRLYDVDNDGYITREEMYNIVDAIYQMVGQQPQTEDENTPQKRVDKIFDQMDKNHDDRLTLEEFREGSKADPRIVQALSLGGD
assay explanation: Protein-directed DCL, HPLC-MS relative peak area with and without dNCS-1
experimental setup: sheet Supplementary Figure 10, with dNCS-1

O=C(Cc1c[nH]c2ccccc12)NN=Cc1ccc([N+](=O)[O-])c(O)c1 (mixture of isomers); 29.4%
O=C(NN=Cc1ccc([N+](=O)[O-])c(O)c1)C(O)c1ccccc1 (mixture of isomers); 8.39%
COCCC(=O)N/N=C/c1ccc([N+](=O)[O-])c(O)c1; 0%
O=C(N/N=C/c1ccc([N+](=O)[O-])c(O)c1)c1cccs1; 43.4%

Kindly consider the entry below.
**Query** Tell us which RPA (%), Templated DCL value is on record for "O=C(N/N=C/c1ccc([N+](=O)[O-])c(O)c1)c1ccco1"
**Result** 18.8%

###

assay explanation: Parallel artificial membrane permeability assay (PAMPA-BBB)
Assay type: in vitro ADME
experimental setup: source data
Provide the recorded Pe (10-6 cm s-1) Experimental 1 for the entries that follow.

O=C(N/N=C/c1ccc([N+](=O)[O-])c(O)c1)c1ccco1; 1.7 10-6 cm s-1

Look up Pe (10-6 cm s-1) Experimental 1 for the entries below, preserving their order.
1. CCn1cc(C(=O)O)c(=O)c2cc(F)c(N3CCNCC3)nc21
2. CN(C)CCCN1c2ccccc2Sc2ccccc21
3. O=C(Cc1c[nH]c2ccccc12)NN=Cc1ccc([N+](=O)[O-])c(O)c1 (mixture of isomers)
4. Cn1c(=O)c2c(ncn2C)n(C)c1=O

**Result**
["1.4 10-6 cm s-1", "9.5 10-6 cm s-1", "12.9 10-6 cm s-1", "1.3 10-6 cm s-1"]

Here are 2 compounds. What values of Pe (10-6 cm s-1) Experimental 1 were reported for them?
1. CN1C(C(=O)Nc2ccccn2)=C(O)c2ccccc2S1(=O)=O
2. O=C(NN=Cc1ccc([N+](=O)[O-])c(O)c1)C(O)c1ccccc1 (mixture of isomers)

**Result**
1. 1.3 10-6 cm s-1
2. 2.5 10-6 cm s-1

###

tested system: NCS-1/Ric8a interaction (Homo sapiens, UniProt P62166)
Construct: expressed in transfected cells; host or cells: HEK293 cells (Dharmacon)
Sequence (P62166 2-190 limits assumed): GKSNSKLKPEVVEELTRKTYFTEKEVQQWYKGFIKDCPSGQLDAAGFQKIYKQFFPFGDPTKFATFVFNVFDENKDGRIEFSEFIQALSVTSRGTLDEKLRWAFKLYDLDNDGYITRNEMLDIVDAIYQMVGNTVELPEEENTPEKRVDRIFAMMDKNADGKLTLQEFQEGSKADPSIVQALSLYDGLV
assay explanation: Co-IP binding assay of human NCS-1 and V5-tagged Ric8a in transfected HEK cells
Type: cell-based
experimental setup: compound 20 μM; DMSO in the same experiment 9508518
Please respond with reported Densitometry of V5-Ric8a co-immunoprecipitated with NCS-1, exp2 for every item in the list.
Numbers only.

Sample answers from the record:
O=C(N/N=C/c1ccc([N+](=O)[O-])c(O)c1)c1ccco1; 4838154
CN(C)CCCN1c2ccccc2Sc2ccc(Cl)cc21 [CPZ, Chlorpromazine, reference compound]; 4354560
O=C(Cc1c[nH]c2ccccc12)NN=Cc1ccc([N+](=O)[O-])c(O)c1 (mixture of isomers); 15828581

**Query** Give Densitometry of V5-Ric8a co-immunoprecipitated with NCS-1, exp2 for O=C(NN=Cc1ccc([N+](=O)[O-])c(O)c1)C(O)c1ccccc1 (mixture of isomers)
**Result** 13428024
